test_protocol: compounds altering HSF1 focus formation in cells – imaging, Selleck Cancer Library (AID 1347162)
test_parameters: human cells, HSF1 nuclear foci imaging, at 10 µM; active compounds read low
Hi! Just check whether plate-normalised HSF1 focus index is below 1. Below gives Condition met, equal or above gives Condition not met.

A selection of reference data follows.
{"compound": "Cn1cncc1[C@@](N)(c1ccc(Cl)cc1)c1ccc2c(c1)c(-c1cccc(Cl)c1)cc(=O)n2C", "answer_label": "Condition met"}
{"compound": "O=C1[C@H](Cc2ccc(O)cc2)N2C(=O)CCN(C(=O)NCc3ccccc3)[C@H]2CN1Cc1cccc2ccccc12", "answer_label": "Condition not met"}
{"compound": "COc1cc2ncnc(-n3nc(-c4ccccn4)nc3N)c2cc1OC", "answer_label": "Condition not met"}
{"compound": "COc1nc(C)cnc1NS(=O)(=O)c1cccnc1-c1ccc(-c2nnco2)cc1", "answer_label": "Condition not met"}
{"compound": "Cc1ccc(F)c(NC(=O)Nc2ccc(-c3cccc4[nH]nc(N)c34)cc2)c1", "answer_label": "Condition not met"}

Input: Dear reviewer, please state whether CO[C@H]1C[C@@H]2CC[C@@H](C)[C@@](O)(O2)C(=O)C(=O)N2CCCC[C@H]2C(=O)O[C@H]([C@H](C)C[C@@H]2CC[C@@H](OC(=O)C(C)(CO)CO)[C@H](OC)C2)CC(=O)[C@H](C)/C=C(\C)[C@@H](O)[C@@H](OC)C(=O)[C@H](C)C[C@H](C)/C=C/C=C/C=C/1C has plate-normalised HSF1 focus index strictly beneath 1.
Output: Condition not met

Input: plate-normalised HSF1 focus index strictly < 1 for this compound? Cc1ccc(C(=O)N(CCCN)[C@@H](c2nc3cc(Cl)ccc3c(=O)n2Cc2ccccc2)C(C)C)cc1
Output: Condition met

Input: Is it true that plate-normalised HSF1 focus index reported for C#Cc1cccc(Nc2ncnc3cc(OC)c(OCCCCCCC(=O)NO)cc23)c1 is less than 1?
Output: Condition met

Input: Is the reported plate-normalised HSF1 focus index for CC(=O)OCCN1C(=O)c2c(C)nc3ccc(S(=O)(=O)N4CCOCC4)cc3c2C1=O strictly below 1?
Output: Condition not met

Input: Below 1 on plate-normalised HSF1 focus index? Entry O=C(c1cc(Cc2n[nH]c(=O)c3ccccc23)ccc1F)N1CCN(C(=O)C2CC2)CC1
Output: Condition not met

Input: Take the compound COc1cc2c(cc1OC)CN(CCc1ccc(NC(=O)c3cccc4c(=O)c5cccc(OC)c5[nH]c34)cc1)CC2 and say whether its plate-normalised HSF1 focus index is less than 1.
Output: Condition not met

----------
test_protocol: viability loss in pontine glioma line – cell-based, SU-DIPG-XIII, MIPE5.0, CellTiter-Glo, qHTS, dose response (AID 1347064);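 for AC50: cells exposed to compound for 48 hours before the viability read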
test_parameters: CellTiter-Glo ATP luminescence
Records with an inconclusive call do not appear. Calls of active or inactive are those of the source. The limit is not given here; nearly all actives have AC50 up to about 23 µM.
Response enum: active, inactive

Past entries and their recorded results:
{"compound": "Nc1nc(N)c2nc(-c3cccc(Cl)c3)c(N)nc2n1", "answer_label": "active"}
{"compound": "CC(/C=C1\\SC(=S)N(CC(=O)O)C1=O)=C\\c1ccccc1", "answer_label": "inactive"}
{"compound": "Oc1cccc(-c2nc(N3CCOCC3)c3oc4ncccc4c3n2)c1", "answer_label": "active"}
{"compound": "CCC(=O)O[C@]1(C(=O)CO)CC[C@H]2[C@@H]3CCC4=CC(=O)CC[C@]4(C)[C@H]3CC[C@@]21C", "answer_label": "inactive"}
{"compound": "C=CCN1C[C@H](C(=O)N(CCCN(C)C)C(=O)NCC)CC2c3cccc4[nH]cc(c34)C[C@H]21 (stereo not given in full)", "answer_label": "inactive"}
{"compound": "COC(=O)N[C@@H](C)CNc1nccc(-c2cn(C(C)C)nc2-c2cc(Cl)cc(NS(C)(=O)=O)c2F)n1", "answer_label": "inactive"}
{"compound": "C=C[C@H]1CN2CCC1C[C@@H]2C(O)c1ccnc2ccc(OC)cc12 (stereo not given in full)", "answer_label": "inactive"}
{"compound": "COc1ccc(C2=N[C@H](c3ccc(Cl)cc3)[C@H](c3ccc(Cl)cc3)N2C(=O)N2CCNC(=O)C2)c(OC(C)C)c1", "answer_label": "active"}
{"compound": "NC(=O)c1c(OCc2c(F)cc(Br)cc2F)nsc1NC(=O)NCCCCN1CCCC1", "answer_label": "active"}
{"compound": "CCn1nnc2c(N3CCOCC3)nc(-c3ccc(NC(=O)Nc4ccc(C(=O)N5CCN(C)CC5)cc4)cc3)nc21", "answer_label": "active"}

Input: Please state the recorded outcome for this compound: O=C(NCCS(=O)(=O)c1ccc(C(F)(F)F)cn1)c1ccc(Cl)cc1
Output: inactive

Input: For C=Cc1c(C)c2cc3nc(cc4[nH]c(cc5nc(cc1[nH]2)C(C)=C5CCC(=O)O)c(CCC(=O)OC)c4C)[C@@]1(C)C3=CC=C(C(=O)OC)[C@H]1C(=O)OC , what call appears in the results of this test?
Output: active

Input: Write down the call the test reported for this compound. Item: Cc1c(CCOc2ccc(C(=O)O)cc2)c2cc(Cl)ccc2n1C(c1ccccc1)c1ccccc1
Output: inactive

Input: Hi, do you know how COc1cc2c(cc1OC)CN(CCc1ccc(NC(=O)c3cccc4c(=O)c5cccc(OC)c5[nH]c34)cc1)CC2 came out in this test?
Output: inactive

Input: Record lookup: outcome of this test for Cc1cc2cc(Oc3ccnc(Nc4cccc(CS(=O)(=O)NCCN(C)C)c4)n3)ccc2[nH]1 ?
Output: active

Input: Dear colleague, could you share the recorded outcome for COC1=C2C[C@H](C)C[C@H](OC)[C@H](O)[C@@H](C)/C=C(/C)[C@H](OC(N)=O)[C@@H](OC)/C=C\C=C(\C)C(=O)NC(=CC1=O)C2=O when you have a moment?
Output: active

Input: Can you look up the reported call for COc1cccc2c(NCc3ccccc3)nc(-n3c(N)nc4ccccc43)nc12 for me?
Output: active
